Target protein (sequence): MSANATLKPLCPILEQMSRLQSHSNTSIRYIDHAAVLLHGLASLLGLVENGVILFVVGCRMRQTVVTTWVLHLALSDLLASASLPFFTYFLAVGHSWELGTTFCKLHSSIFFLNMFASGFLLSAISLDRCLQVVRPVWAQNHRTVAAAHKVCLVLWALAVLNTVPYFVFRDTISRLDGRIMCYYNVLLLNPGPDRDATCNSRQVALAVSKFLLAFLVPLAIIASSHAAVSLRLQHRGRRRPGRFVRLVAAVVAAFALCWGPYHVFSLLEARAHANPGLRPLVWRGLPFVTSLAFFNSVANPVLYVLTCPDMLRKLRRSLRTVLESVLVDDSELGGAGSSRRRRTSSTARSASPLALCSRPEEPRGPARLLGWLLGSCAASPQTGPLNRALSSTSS
Counter-ions that a name gives are not always drawn.
reported.property: pIC50
Interpret pIC50 as the negative base-10 log of the concentration measured in mol/L.

1) CCS(=O)(=O)c1ccc(Oc2cc(Cl)ccc2OCC(=O)O)cc1 [Example 5, sodium salt]	8.00

// moving on: another record for pIC50
Provide pIC50 value for the following molecule: CCS(=O)(=O)c1ccc(Cc2cc(C(F)(F)F)ccc2OCC(=O)O)cc1
8.00

Ref: patent US8394986B2
